src = patent US9657057B2

- Test Protocol: Solubility pH 7
- Assay type: physicochemical
- Conditions Used: pH 7, aqueous buffer
Result Type: solubility (µg/mL)
Dear colleague, please return just the value in µg/mL, with no unit written.

These recorded examples may help you get a feel for the data.
[[record]]
compound = "COc1ccc(C[C@H](NC(=O)[C@@H](C)NC(=O)C2=CCCC2)C(=O)N[C@@H](Cc2ccccc2)C(=O)[C@@]2(C)CO2)cc1"
numeric_result = 45.4

[[record]]
compound = "COc1ccc(C[C@H](NC(=O)[C@@H]2CCC(=O)N2)C(=O)N[C@@H](Cc2ccccc2)C(=O)[C@@]2(C)CO2)cc1"
numeric_result = 1910

[[record]]
compound = "COc1ccc(C[C@H](NC(=O)[C@H](C)NC(=O)Cc2cnc(N)o2)C(=O)N[C@@H](CC2=CCCC2)C(=O)[C@@]2(C)CO2)cc1"
numeric_result = 1020

[[record]]
compound = "COc1ccc(C[C@H](NC(=O)[C@@H](C)NC(=O)C2=C(C)c3ccccc3C2)C(=O)N[C@@H](CC2CCCC2)C(=O)[C@@]2(C)CO2)cc1"
numeric_result = 0.3

[[record]]
compound = "COc1ccc(C[C@H](NC(=O)[C@@H](C)NC(=O)CC(C)(C)O)C(=O)N[C@@H](CC2CCCC2)C(=O)[C@@]2(C)CO2)cc1O"
numeric_result = 2450

[[record]]
compound = "COc1ccc(C[C@H](NC(=O)[C@@](C)(O)C(F)(F)F)C(=O)N[C@@H](Cc2ccccc2)C(=O)[C@@]2(C)CO2)cc1"
numeric_result = 86.7

[[record]]
compound = "COc1ccc(C[C@H](NC(=O)[C@@H](C)NC(=O)c2cnc(C)s2)C(=O)N[C@@H](CC2CCCC2)C(=O)[C@@]2(C)CO2)cc1"
numeric_result = 126

[[record]]
compound = "COc1ccc(C[C@H](NC(=O)[C@@H](C)NC(=O)c2nc3ccccc3[nH]2)C(=O)N[C@@H](CC2CCCC2)C(=O)[C@@]2(C)CO2)cc1"
numeric_result = 1.7

[[record]]
compound = "COc1ccc(C[C@H](NC(=O)[C@H]2CC(=O)N2)C(=O)N[C@@H](Cc2ccccc2)C(=O)[C@@]2(C)CO2)cc1"
numeric_result = 1200

[[record]]
compound = "CC1=C(C(=O)N[C@@H](C)C(=O)N[C@@H](Cc2c[nH]c3ccccc23)C(=O)N[C@@H](Cc2ccccc2)C(=O)[C@@]2(C)CO2)Cc2ccccc21"
numeric_result = 1.9


Exercise: Return reported solubility. Input compound: COc1ccc(C[C@H](NC(=O)[C@@H](C)NC(=O)CC(C)(O)C(F)(F)F)C(=O)N[C@@H](CC2CCCC2)C(=O)[C@@]2(C)CO2)cc1 (stereo partly shown)
Solution: 122

Exercise: Return reported solubility. Input compound: `COc1ccc(C[C@H](NC(=O)[C@@H](C)NC(=O)C2=CCCC2)C(=O)N[C@@H](CC2CCCC2)C(=O)[C@@]2(C)CO2)cc1`
Solution: 3.6

Exercise: Return reported solubility. Input compound: `COc1ccc(C[C@H](NC(=O)[C@@H](C)NC(=O)c2ncc[nH]2)C(=O)N[C@@H](CC2CCCC2)C(=O)[C@@]2(C)CO2)cc1`
Solution: 55.5

Exercise: Return reported solubility. Input compound: `COc1ccc(C[C@H](NC(=O)[C@@H](C)NC(=O)CC(C)(C)O)C(=O)N[C@@H](CC2CCCC2)C(=O)[C@@]2(C)CO2)cc1`
Solution: 776

Exercise: Return reported solubility. Input compound: `COc1ccc(C[C@H](NC(=O)[C@H]2CCC(=O)N2)C(=O)N[C@@H](Cc2ccccc2)C(=O)[C@@]2(C)CO2)cc1`
Solution: 4410
